biological target: Voltage-gated potassium channel subunit beta-2 (Rattus norvegicus); assay: inhibitors of rat Kvbeta2 reductase activity – biochemical, NADPH fluorescence, primary screen (AID 622); settings: recombinant KvBeta, 4-cyanobenzaldehyde reduction, at 10 µM;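 note: slope of raw intensity against log time taken from 70 to 1610 s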
Active and inactive are the calls of the source.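 Rule for the calls: active = fluorescence slope higher than the sample average by over 3 SD (cut at about -0.22 in these data, passing the limit was not always enough); inactive = the rest.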
I would appreciate it if you answered using one of these outcomes: yes (active), no (inactive)

How was `CCN(Cc1nc2cc(OC)c(OC)cc2c(=O)[nH]1)C(=O)c1ccc(S(=O)(=O)N(C)C)cc1` classified in this test?
no

###

experiment: inhibitors of TNFa-induced NFkB p65 translocation, primary screen, imaging, HUVEC, MLSMR starter and 10KST1 sets (AID 438); settings: HUVEC TNFa-induced p65 nuclear translocation; measured here: nuclei count (cytotoxicity indicator), at 2.08 µM;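 note: compound added about 3h40 before a 20 min TNFalpha stimulation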
endpointName: cell count

compound	endpointName	testResult
Cc1[nH]nc2c1C1(CCN(C(=O)c3ccccc3)CC1)C(C#N)=C(N)O2	cell count	316

# cell count lookup, item Cc1ccc(-n2nc(-c3cccs3)cc2C(=O)NCC2CCCO2)c(C)c1 (centres undefined)
490

Repeat for the following compound: CC(=O)Nc1nc2c(c3c1c(=O)oc1ccccc13)CC(C)CC2 (centres undefined)
509

Repeat for the following compound: COc1ccccc1N1CCN(C(=O)C2CC=CCC2C(=O)O)CC1 (centres undefined)
444

Repeat for the following compound: `CCNc1ccc2c(Cl)cc(=O)oc2c1`
356

Repeat for the following compound: `Cc1cccn2c(=O)c3cc(C(=O)N4CCCc5ccccc54)n(C)c3nc12`
232
